- System: HEK-293 cells
- assay-protocol: MTT cytotoxicity, 72 h, non-tumor HEK-293 embryonic kidney cells
- Type: cell-based, human
- run-parameters: read-out: IC50 (μM) ± S.D., HEK-293; MTT test, 72 h, non-tumor cells
endpoint: IC50

# input Recorded IC50 for C1N2CN3CN1CP(C2)C3.Cc1cc(C)n(C(C(=O)OC(C)C)n2nc(C)cc2C)n1.F[P-](F)(F)(F)(F)F.[Cu+] [compound 4, [Cu(L^2OiPr)(PTA)]PF6] , please?
# output > 50 µM
